Source listed as PubChem BioAssay (NCI).

tested on: MCF7 breast; experiment: NCI tumour cell line growth inhibition, 48 h; in the data active means GI50 below about 0.43 µM; inactive means the rest
Pick from 1 = active, -1 = inactive when you respond.

Which outcome was assigned to [Cl-].[Rh+3].c1ccc(-c2ccnc3c2ccc2c(-c4ccccc4)ccnc23)cc1.c1ccc(-c2ccnc3c2ccc2c(-c4ccccc4)ccnc23)cc1.c1ccc(-c2ccnc3c2ccc2c(-c4ccccc4)ccnc23)cc1 in this test? -1

Which outcome was assigned to Nc1c(C(=O)c2cccc(OCCN3CCOCC3)c2)cnn1-c1ccc(F)cc1 in this test? -1

Which outcome was assigned to COc1ccc(C2NCCc3c2[nH]c2ccccc32)cc1CN1CCN(c2ccc(F)cc2)CC1 (configuration not stated) in this test? -1

Which outcome was assigned to Cc1ccc(S(=O)(=O)Oc2ccc3c4c(c(=O)oc3c2)CCCCC4)cc1 in this test? -1

Which outcome was assigned to O=C1c2cccnc2-c2nc(/C=C/c3ccccc3)cc3c2c1nc1ccccc13 in this test? -1

Which outcome was assigned to C/C=C(\C)C(=O)O[C@@H]1C(O)[C@H]2OC(COC(=O)CCC(=O)CCCCCC[C@H](CCCCC)O[C@@H]3OC(C)[C@H](OC(C)=O)C(O)[C@H]3O2)[C@H]1OC(=O)/C=C/c1ccccc1 (some centres not stated) in this test? 1

Which outcome was assigned to CN1CCN(c2ccc(-c3cnc4c(-c5csc6ccccc56)cnn4c3)cc2)CC1 in this test? -1
